- test_system: human IL-23R (Homo sapiens)
- Construct: Nanoluc luciferase (Nluc); secretion signal encoded by the plasmid (not specified); expressed in transfected cells; crude membranes used in the assay
- Sequence (Q5VWK5 22-629): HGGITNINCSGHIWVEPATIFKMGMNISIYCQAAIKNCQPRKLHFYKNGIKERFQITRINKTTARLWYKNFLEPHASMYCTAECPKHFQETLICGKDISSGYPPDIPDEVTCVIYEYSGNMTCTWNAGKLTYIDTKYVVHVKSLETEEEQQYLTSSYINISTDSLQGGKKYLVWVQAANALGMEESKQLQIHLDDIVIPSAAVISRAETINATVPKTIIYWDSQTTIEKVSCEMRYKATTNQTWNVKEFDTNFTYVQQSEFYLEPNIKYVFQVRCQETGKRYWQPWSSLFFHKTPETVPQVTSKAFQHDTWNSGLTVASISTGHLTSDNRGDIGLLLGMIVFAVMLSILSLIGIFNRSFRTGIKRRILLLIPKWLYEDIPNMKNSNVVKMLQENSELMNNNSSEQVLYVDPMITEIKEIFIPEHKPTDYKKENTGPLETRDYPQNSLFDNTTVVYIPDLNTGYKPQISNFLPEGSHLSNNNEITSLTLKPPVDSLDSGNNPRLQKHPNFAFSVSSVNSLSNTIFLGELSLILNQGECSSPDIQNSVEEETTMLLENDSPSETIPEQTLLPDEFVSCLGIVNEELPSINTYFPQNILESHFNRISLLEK
- test: Binding assay: displacement of fluorophore (TAMRA)-labelled reference compound from human IL-23R (BRET, Nluc-IL23R fusion protein membranes)
- measurement_parameters: read-out: % displacement (hIL-23R binding)
*1 amine or outer side, *2 acyl side, *3 side chain or, on linkers, in order; H or OH if unused. Where a SMILES comes first, the peptide text is derived from it. Bridges are numbered along the chain shown (N, C = ends). [ ]: non-standard residue; d: D form. 2Nal = N[C@@H](Cc1ccc2ccccc2c1)C(=O)O; AEF = NCCOc1ccc(C[C@H](N)C(=O)O)cc1; X1 = O=C(Cc1ccc(CN[*:1])cc1)[*:2]; 3Pal = N[C@@H](Cc1cccnc1)C(=O)O; αMeL = CC(C)C[C@](C)(N)C(=O)O; CH2COCH2 = O=C(C[*:1])C[*:2]; 3Amb = NCc1cccc(C(=O)O)c1; Dab = NCC[C@H](N)C(=O)O
Entries annotated with measured Emax
Your answer is read as %, so omit the unit and give the number.

Worked examples, 5 compounds total:
>>> result_value("CNC(=O)[C@H](Cc1cccnc1)NC(=O)[C@H](CO)NC(=O)[C@@H]1CCC(=O)NCc2ccc(cc2)CC(=O)N[C@@H](CO)C(=O)N[C@H]2CCC(=O)NCC[C@H](NC(=O)[C@H](CCC(N)=O)NC(=O)[C@H](Cc3c[nH]c4ccccc34)NC2=O)C(=O)N[C@@H](Cc2ccc(OCCN)cc2)C(=O)N[C@@H](Cc2ccc3ccccc3c2)C(=O)N[C@@](C)(CC(C)C)C(=O)N1 [Compound 31] ([X1]SEWQ[Dab][AEF][2Nal][αMeL]ES[3Pal]-NHMe; lactam 3-6, N-10)")
97
>>> result_value("CNC(=O)[C@H](Cc1cccnc1)NC(=O)[C@H](COC)NC(=O)[C@@H]1CCC(=O)NCc2ccc(cc2)CC(=O)N[C@@H](CO)C(=O)N[C@H]2CCC(=O)NCC[C@H](NC(=O)[C@H](CCC(N)=O)NC(=O)[C@H](Cc3c[nH]c4ccccc34)NC2=O)C(=O)N[C@@H](Cc2ccc(OCCN)cc2)C(=O)N[C@@H](Cc2ccc3ccccc3c2)C(=O)N[C@@](C)(CC(C)C)C(=O)N1")
95
>>> result_value("CNC(=O)[C@H](Cc1cccnc1)NC(=O)[C@H](CCN)NC(=O)[C@@H]1CCC(=O)NCc2ccc(cc2)CC(=O)N[C@@H](C)C(=O)N[C@H]2CCC(=O)NCC[C@H](NC(=O)[C@H](CCC(N)=O)NC(=O)[C@H](Cc3c[nH]c4ccccc34)NC2=O)C(=O)N[C@@H](Cc2ccc(N3CCOCC3)cc2)C(=O)N[C@@H](Cc2ccc3ccccc3c2)C(=O)NC(C)(C)C(=O)N1")
105
>>> result_value("CC(C)C[C@]1(C)NC(=O)[C@H](Cc2ccc3ccccc3c2)NC(=O)[C@H](Cc2ccc(OCCN)cc2)NC(=O)[C@@H]2CSCC(=O)CSC[C@H](NC(=O)[C@H](CO)NC(=O)c3cccc(c3)CNC(=O)CC[C@@H](C(=O)N[C@H](CCCNC(=N)N)C(N)=O)NC1=O)C(=O)N[C@@H](Cc1c[nH]c3ccccc13)C(=O)N[C@@H](CCC(N)=O)C(=O)N2 [Ref 41, reference compound] ([3Amb]SCWQC[AEF][2Nal][αMeL]E[dR]-NH2; linker 3-6 via CH2COCH2; lactam N-10)")
110
>>> result_value("CNC(=O)[C@H](Cc1cccnc1)NC(=O)[C@H](CCN)NC(=O)[C@@H]1CCC(=O)NCc2ccc(cc2)CC(=O)N[C@@H](C)C(=O)N[C@H]2CCC(=O)NCC[C@H](NC(=O)[C@H](CCC(N)=O)NC(=O)[C@H](Cc3c[nH]c4ccccc34)NC2=O)C(=O)N[C@@H](Cc2ccc(OCCN)cc2)C(=O)N[C@@H](CC2CC2)C(=O)NC(C)(C)C(=O)N1")
100

**Query** Give reported Emax value for CC(C)C[C@]1(C)NC(=O)[C@H](Cc2ccc3ccccc3c2)NC(=O)[C@H](Cc2ccc(OCCN)cc2)NC(=O)[C@@H]2CSCC(=O)CSC[C@H](NC(=O)[C@H](CO)NC(=O)Cc3ccc(cc3)CNC(=O)CC[C@@H](C(=O)N[C@@H](CCCNC(=N)N)C(N)=O)NC1=O)C(=O)N[C@@H](Cc1c[nH]c3ccccc13)C(=O)N[C@@H](CCC(N)=O)C(=O)N2 [Ref 52, reference compound] ([X1]SCWQC[AEF][2Nal][αMeL]ER-NH2; linker 3-6 via CH2COCH2; lactam N-10)
**Result** 100

**Query** Give reported Emax value for `CNC(=O)[C@H](Cc1cccnc1)NC(=O)[C@@H](CO)NC(=O)[C@@H]1CCC(=O)NCc2ccc(cc2)CC(=O)N[C@@H](CO)C(=O)N[C@H]2CCC(=O)NCC[C@H](NC(=O)[C@H](CCC(N)=O)NC(=O)[C@H](Cc3c[nH]c4ccccc34)NC2=O)C(=O)N[C@@H](Cc2ccc(OCCN)cc2)C(=O)N[C@@H](Cc2ccc3ccccc3c2)C(=O)N[C@@](C)(CC(C)C)C(=O)N1`
**Result** 102

**Query** Give reported Emax value for CC(C)C[C@]1(C)NC(=O)[C@H](Cc2ccc3ccccc3c2)NC(=O)[C@H](Cc2ccc(OCCN)cc2)NC(=O)[C@@H]2CSCC(=O)CSC[C@H](NC(=O)[C@H](CO)NC(=O)Cc3ccc(cc3)CNC(=O)CC[C@@H](C(=O)N[C@@H](CCN)C(N)=O)NC1=O)C(=O)N[C@@H](Cc1c[nH]c3ccccc13)C(=O)N[C@@H](CCC(N)=O)C(=O)N2 [Ref 82, reference compound] ([X1]SCWQC[AEF][2Nal][αMeL]E[Dab]-NH2; linker 3-6 via CH2COCH2; lactam N-10)
**Result** 103

**Query** Give reported Emax value for CC(=O)N[C@H]1CCCCNC(=O)CC[C@@H](C(=O)N[C@@H](CCN)C(=O)N[C@@H](Cc2cccnc2)C(N)=O)NC(=O)[C@](C)(CC(C)C)NC(=O)[C@H](Cc2ccc3ccccc3c2)NC(=O)[C@H](Cc2ccc(OCCN)cc2)NC(=O)[C@@H]2CSCC(=O)CSC[C@H](NC(=O)[C@H]([C@@H](C)O)NC1=O)C(=O)N[C@@H](Cc1c[nH]c3ccccc13)C(=O)N[C@@H](CCC(N)=O)C(=O)N2 [Ref 155, reference compound] (Ac-KTCWQC[AEF][2Nal][αMeL]E[Dab][3Pal]-NH2; lactam 1-10; linker 3-6 via CH2COCH2)
**Result** 97
